Assay: Tissue distribution of radioactivity in mice
Format: in vivo, mouse
Conditions: mouse brain, 5 min; mean of three mice, range 2.2-2.4; read-out: Tissue distribution, % Dose/g
measurement.type: tissue uptake at 5 min (%ID/g)

>>> df
                                   compound        measurement_type  unit_abbreviation  recorded_result
0  CN1CN(c2ccccc2)C2(CCN(CCCC(=O)c3ccc([18F])cc3)CC2)C1=O [[^18 F]-N-methylspiroperidol]  tissue uptake at 5 min              %ID/g              2.3

====

Assay: Baboon plasma analyses (total plasma radioactivity clearance and unchanged radioligand)
Settings: baboon, plasma, iv, % of ^18 F in CH3 CN as [^18 F]-N-Methylspiroperidol, baboon plasma, 4.0 min after injection
measurement.type: remaining at 4 min

                                   compound    measurement_type  recorded_result
0  CN1CN(c2ccccc2)C2(CCN(CCCC(=O)c3ccc([18F])cc3)CC2)C1=O [[^18 F]-N-methylspiroperidol]  remaining at 4 min              78%

====

Assay: Baboon plasma analyses (total plasma radioactivity clearance and unchanged radioligand)
Conditions: baboon, plasma, iv, % [^18 F]-N-Methylspiroperidol in Plasma, baboon plasma, 60 min after injection
measurement.type: remaining at 1 h (%)

                                   compound  unit_abbreviation  recorded_result
0  CN1CN(c2ccccc2)C2(CCN(CCCC(=O)c3ccc([18F])cc3)CC2)C1=O [[^18 F]-N-methylspiroperidol]                  %               18

====

Experiment: Tissue distribution of radioactivity in mice
Type: in vivo, mouse
Details: mouse lungs, 5 min; mean of three mice, range 11-14; read-out: Tissue distribution, % Dose/g
measurement.type: tissue uptake at 5 min (%ID/g)

>>> print(df.to_string())
                                   molecule        measurement_type  recorded_result
0  CN1CN(c2ccccc2)C2(CCN(CCCC(=O)c3ccc([18F])cc3)CC2)C1=O [[^18 F]-N-methylspiroperidol]  tissue uptake at 5 min               13

====

Experiment: Baboon plasma analyses (total plasma radioactivity clearance and unchanged radioligand)
Settings: baboon, plasma, iv, % [^18 F]-N-Methylspiroperidol in Plasma, baboon plasma, 180 min after injection
measurement.type: remaining at 3 h (%)

                                   molecule  measurement_type  recorded_result
0  CN1CN(c2ccccc2)C2(CCN(CCCC(=O)c3ccc([18F])cc3)CC2)C1=O [[^18 F]-N-methylspiroperidol]  remaining at 3 h               11

====

Experiment: Tissue distribution of radioactivity in mice
Assay type: in vivo, mouse
Settings: mouse heart, 5 min; mean of three mice, range 3.2-3.4; read-out: Tissue distribution, % Dose/g
measurement.type: tissue uptake at 5 min (%ID/g)

>>> df
                                   molecule        measurement_type  unit_abbreviation  recorded_result
0  CN1CN(c2ccccc2)C2(CCN(CCCC(=O)c3ccc([18F])cc3)CC2)C1=O [[^18 F]-N-methylspiroperidol]  tissue uptake at 5 min              %ID/g              3.3
